# experimental_system: Tubulin
# experimental_protocol: Inhibition of tubulin (unknown origin) assessed as inhibition of GTP-induced polymerization incubated for 45 mins prior to GTP-addition measured after 2 hrs by DAPI-staining based fluorimetric analysis
pIC50: −log10 of the molar value.
pIC50 of 6 or higher: y. Under 6: n.

compound	experimental_system	category
COc1ccc(C2CC2c2cc(OC)c(OC)c(OC)c2)cc1N (racemic)	Tubulin	n
COc1ccc(C2CC2c2cc(OC)c(OC)c(OC)c2)cc1[N+](=O)[O-] (racemic)	Tubulin	n
COc1cc([C@H]2C[C@H]2/C=C/c2ccccc2)cc(OC)c1OC	Tubulin	n
COc1ccc([C@H]2C[C@H]2c2cc(OC)c(OC)c(OC)c2)cc1O	Tubulin	n
COc1ccc([C@@H]2C[C@@H]2c2cc(OC)c(OC)c(OC)c2)cc1O	Tubulin	y
COc1cc(C2CC2/C=C/c2ccccc2)cc(OC)c1OC (racemic)	Tubulin	n
